Test system: IGROV1 ovarian
Assay: NCI tumour cell line growth inhibition, 48 h
Can you tell me TGI for the items I'm about to list?

If you can, please state the reported TGI value of NCCCCC(=O)c1cccnc1 .
> 100 µM

// next record Cc1ccc(C(SCC(N)C(=O)O)(c2ccccc2)c2ccccc2)cc1 (centres undefined)
> 71.3 µM

// repeat for O=C(CC(=O)N1N=C(N(c2ccccc2)c2ccccc2)CC1c1ccccc1)Nc1ccc(Cl)cc1 (centres undefined) and report
> 100 µM

// next record COc1cc(N2CCN(C(C)C)CC2)ccc1Nc1nc(Nc2cccc(F)c2C(=O)O)c2cc[nH]c2n1
> 25 µM

And the next one, CC(C)(C)c1cc(OCc2nnc3sc(=S)[nH]n23)c(Cl)cc1OCc1nnc2sc(=S)[nH]n12 ?
66.4 µM

Then CN1C=Cc2nccc3cc4c(c1c23)OCO4 ?
> 39.2 µM

And then OCCNCCCOc1ccc2ncnc(Nc3ccc(Oc4cccc(C(F)(F)F)c4)c(Cl)c3)c2c1 , what is it?
2.14 µM

Do the same for Nc1c(N2CCOCC2)c(=O)nc2[nH]/c(=C\c3ccccc3)c(=O)n12 please
> 100 µM

And then C=CC1(NS(=O)(=O)c2ccc(C)cc2)CCC(C(C)(C)C)CC1 (centres undefined) , what is it?
> 100 µM

Please answer likewise for CCOC(=O)[C@H]1Nc2ccc([N+](=O)[O-])cc2C2c3ccccc3CC21 (some centres undefined)
> 100 µM

Moving on to the next compound: CCCNC(=O)c1ccc(Cl)cc1Cl
> 100 µM

Try this compound too: CCN(CC)c1ccc2cc(-c3nnc(-c4ccccc4O)o3)c(=O)oc2c1
13.9 µM

Same read-out for N#Cc1nc(-c2ccccn2)oc1N ?
> 100 µM

Proceed to CSc1nc(NC2OC(COC(C)=O)C(OC(C)=O)C(OC(C)=O)C2OC(C)=O)c(-c2csc(N)n2)c(=O)n1C (centres undefined)
> 100 µM

What would you report for COc1ccc2c(Cl)cc(NC(=O)Nc3c(C)cccc3C)nc2c1 ?
> 100 µM

Can you check NC(=O)C(=O)C(c1ccccc1)S(=O)(=O)Cc1ccccc1 (centres undefined) next?
> 100 µM

Now try C[C@]1(Cn2ccnn2)C(C(=O)O)N2C(=O)CC2S1(=O)=O (some centres undefined) .
> 100 µM

Similarly, Clc1ccc2nc(-c3ccccc3)nc(Cl)c2c1 ?
> 100 µM

Thanks! And Cc1[nH]c(-c2nc3ccccc3[nH]2)c(C)c1C(=O)NC(C)C1CCCCC1 (centres undefined) ?
23.9 µM

Same lookup for CC1(C)C(=O)/C=C\C(=O)C(C)(C)C(=O)/C=C\C(=O)C(C)(C)C(=O)/C=C\C(=O)C(C)(C)C(=O)/C=C\C1=O , please.
56.5 µM

Next up: C[C@@H]1C2=CC[C@@]3(C)C(CCC3[C@H](C)[C@H]3C[C@@]4(C)O[C@@](c5cccnc5)(O3)OC4(C)C)[C@@H]2C2OC2[C@@]12CCC(=O)O2 (some centres undefined)
> 100 µM

Check CC12CO[C@@](C)(CC(S(=O)(=O)c3ccccc3)C1)O2 (some centres undefined) too.
> 100 µM

Same lookup for CC1(C)C=N[N+]2(C)C3C=CC(CC3)C12 (centres undefined) , please.
> 100 µM

What about Cc1nc2ccc(NC3OC(CO)C(O)C(O)C3O)cc2c(=O)n1-c1ccccc1 (centres undefined) ?
> 100 µM
